test: qHTS assay to identify small molecule agonists of the AP-1 signaling pathway - cell viability counter screen (AID 1159525); conditions: ME-180 (cervical carcinoma) AP-1-bla cells viability, ATP luminescence, 5 h; series mostly up to 76.8 µM; note: nearly all actives have a fitted effect of over 55% in size
Results filed as inconclusive are left out. Active and inactive are the calls of the source. Calls come from the whole dose curve.
Measured viability change, negative = cytotoxic, listed per entry.
metric: viability change, negative = cytotoxic

>>> obs_value("CCCCCCCCCCCCCCCCCO")
"-0.925% [at 15.8 µM] (inactive)"
>>> obs_value("O=S(=O)(O)c1cc(S(=O)(=O)O)c2ccc3c(S(=O)(=O)O)cc(S(=O)(=O)O)c4ccc1c2c43")
"-1.68% [at 15.8 µM] (inactive)"
>>> obs_value("O=C=NCc1cccc(CN=C=O)c1")
"-10.1% [at 15.8 µM] (inactive)"
>>> obs_value("C=CC(=C)CC/C=C(\\C)CCC=C(C)C")
"2.62% [at 15.8 µM] (inactive)"
>>> obs_value("O=S(O)O")
"5.55% [at 15.8 µM] (inactive)"
>>> obs_value("C=C/C=C/C=C/CCCCC")
"1.06% [at 15.8 µM] (inactive)"

====

assay: qHTS assay to identify small molecule agonists of the estrogen receptor alpha (ER-alpha) signaling pathway in the presence of an antagonist - cell viability counter screen (AID 1259386); settings: VM7Luc4E2 viability, CellTiter-Fluor fluorescence, 22 h; series mostly up to 92.4 µM;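 note: cells exposed to compounds for 22 h at 37 °C before the viability read; nearly all actives have a fitted effect of over 30% in size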; note: potency is the fitted concentration of half-maximal effect
Records with an inconclusive call do not appear. Calls of active or inactive are those of the source. Calls come from the whole dose curve; as a rule, active = well fitted cell-killing curve with a large enough effect in the repeat runs; inconclusive = weak or mixed curves, or effect the other way; inactive = no such curve, though single readings can be large or run the other way.
metric: Potency

>>> obs_value("O=Nc1ccc(NO)cc1")
"inactive"
>>> obs_value("CCN(CC)CCNc1ccc(CO)c2sc3ccccc3c(=O)c12")
"10.6 µM (active)"
>>> obs_value("CCCCN(CCCC)CCC(O)c1cc2c(Cl)cc(Cl)cc2c2cc(C(F)(F)F)ccc12 (configuration not stated)")
"inactive"
>>> obs_value("CC(=O)OC(OC(C)=O)c1ccc([N+](=O)[O-])o1")
"49.4 µM (active)"
>>> obs_value("C=CC/C=C/C/C=C/C/C=C/C")
"inactive"
>>> obs_value("CC1CCCCC1")
"inactive"
>>> obs_value("COC(=O)CC#N")
"inactive"

====

assay: qHTS assay for small molecule activators of the heat shock response signaling pathway (AID 743210); details: HeLa HSE-bla reporter, beta-lactamase ratio, 5 h; series mostly up to 62.6 µM;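 for activation: HeLa cells with beta-lactamase reporter driven by heat shock elements; % is set by controls: 0 for no effect and ±100 for the full control effect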
Inconclusive results are not listed. The source made the active and inactive calls. The call rests on the fitted dose curve; in most records, active means well fitted activation curve with a large enough effect in the signal ratio in the repeat runs, with a control signal flat (not every such curve was filed as active); inconclusive means weak or mixed curves; inactive means flat fitted curve, though single readings scatter; the % refers to the signal ratio.
Outcomes: active, inactive

>>> class("CC(C)N=C(N)/N=C(\\N)Nc1ccc(Cl)cc1")
"inactive"
>>> class("O=C1OC(=O)c2cccc3cccc1c23")
"inactive"
>>> class("Cc1occc1SSc1ccoc1C")
"active"
>>> class("CCCCCCCCCCCCCCNCCO")
"inactive"
>>> class("Nc1ccc2cc3ccc(N)cc3nc2c1")
"inactive"
>>> class("CCCCCCCCCCCC(=O)N(CC)CC")
"inactive"
>>> class("O=C(c1ccccc1)c1cc(Cl)ccc1O")
"inactive"
>>> class("O=Cc1ccc(F)cc1")
"inactive"

====

assay: qHTS assay to test for compound auto fluorescence at 460 nm (blue) in HepG2 cell free culture (AID 720685); conditions: Cell-free culture medium, blue autofluorescence 405/460 nm; series mostly up to 91.3 µM; note: % is set by controls: 0 for no effect and ±100 for the full control effect
The source made the active and inactive calls. Calls come from the whole dose curve; as a rule, active = well fitted curve in the direction sought with a large enough effect in the repeat runs; inconclusive = weak or mixed curves; inactive = flat fitted curve, though single readings scatter.
metric: fluorescence, % of fluorescent control

>>> obs_value("CO[C@H]1C=CO[C@@]2(C)Oc3c(C)c(O)c4c(O)c(cc(O)c4c3C2=O)NC(=O)/C(C)=C\\C=C/[C@H](C)[C@H](O)[C@@H](C)[C@@H](O)[C@@H](C)[C@H](OC(C)=O)[C@@H]1C")
"inactive"
>>> obs_value("O=C(O)Cc1ccc(OCCNC[C@H](O)c2ccccc2)cc1")
"inactive"
>>> obs_value("c1cc(OCC2CO2)cc(OCC2CO2)c1 (stereo not given)")
"inactive"
>>> obs_value("Cc1occc1SSc1ccoc1C")
"inactive"
>>> obs_value("NCCCC(O)(P(=O)(O)O)P(=O)(O)O")
"inactive"

====

assay: qHTS assay to identify small molecule agonists of the endoplasmic reticulum stress response signaling pathway - cell viability counter screen (AID 1159517); conditions: ESRE-bla HeLa viability, CellTiter-Glo luminescence, 5 h; series mostly up to 61 µM; note: nearly all actives have a fitted effect of over 50% in size
Results filed as inconclusive are left out. The source made the active and inactive calls. Calls follow the shape of the full dose curve.
Classes used: active, inactive

>>> class("CCCN(CCc1cccs1)[C@H]1CCc2c(O)cccc2C1")
"inactive"
>>> class("COC(=O)[C@]1(C)CCC[C@@]2(C)[C@H]1CC=C1C=C(C(C)C)CC[C@@H]12")
"active"
>>> class("CCCCCCCC/C=C/CCCOC(C)=O")
"inactive"
>>> class("C[C@@]12C(=O)OC(=O)[C@]1(C)C1CCC2O1")
"inactive"
>>> class("CNC(=O)c1cc(Oc2ccc(NC(=O)Nc3ccc(Cl)c(C(F)(F)F)c3)cc2)ccn1")
"inactive"
>>> class("CN(C)CCCN1c2ccccc2CCc2ccccc21")
"inactive"

====

Molecular target: Peroxisome proliferator-activated receptor delta (Homo sapiens) (UniProt Q03181)
Sequence (Q03181 whole entry, looked up): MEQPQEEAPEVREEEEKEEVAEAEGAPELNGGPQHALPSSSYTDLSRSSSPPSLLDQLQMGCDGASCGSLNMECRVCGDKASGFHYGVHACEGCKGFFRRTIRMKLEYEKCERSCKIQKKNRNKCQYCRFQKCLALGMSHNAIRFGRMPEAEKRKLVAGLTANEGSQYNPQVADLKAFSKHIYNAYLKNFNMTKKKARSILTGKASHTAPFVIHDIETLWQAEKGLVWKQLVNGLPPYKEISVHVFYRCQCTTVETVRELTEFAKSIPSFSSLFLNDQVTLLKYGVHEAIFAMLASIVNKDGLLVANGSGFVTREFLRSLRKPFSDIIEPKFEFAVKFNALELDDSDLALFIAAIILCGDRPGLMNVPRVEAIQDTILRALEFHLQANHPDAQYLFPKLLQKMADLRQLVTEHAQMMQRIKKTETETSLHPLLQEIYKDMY
Assay: qHTS assay to identify small molecule antagonists of the peroxisome proliferator-activated receptor delta (PPARd) signaling pathway (AID 743215);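 note: cells stimulated with agonist L165041 at 300 nM final during compound exposure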; note: potency is the fitted concentration of half-maximal effect
Details: HEK293H PPARd-UAS-bla, beta-lactamase FRET ratio, antagonist, 17 h; series mostly up to 62 µM
Description: U.S. Tox21 Program National Center for Advancing Translational Sciences [NCATS] NIH Chemical Genomics Center [NCGC] U.S. Environmental Protection Agency [EPA] National Institutes of Environmental Health Sciences [NIEHS] National Toxicology Program [NTP] U.S. Food and Drug Administration [FDA] […]
Inconclusive results are not listed. Active and inactive are the calls of the source. Calls follow the shape of the dose curve; as a rule, active = well fitted inhibition curve with a large enough effect in the signal ratio in the repeat runs (not every such curve was filed as active); inconclusive = weak or mixed curves, or effect the other way; inactive = no such curve, though single readings can be large or run the other way; the % refers to the signal ratio.
metric: Potency

>>> obs_value("Nc1cc(Cl)c([N+](=O)[O-])cc1O")
"inactive"
>>> obs_value("CCCCCCCCCCCC(=O)N(CC)CC")
"inactive"
>>> obs_value("CCCC(CC)CCCCCCCN (stereo not drawn)")
"inactive"
>>> obs_value("C(=C/c1ccccc1)/c1ccccc1")
"inactive"
>>> obs_value("C=C(C)C(=O)OCCC[Si](Cl)(Cl)Cl")
"inactive"
>>> obs_value("CSc1ccc2c(c1)N(CCC1CCCCN1C)c1ccccc1S2 (stereo not drawn)")
"26.6 µM (active)"
>>> obs_value("O=C1OC(=O)c2cccc3cccc1c23")
"inactive"
>>> obs_value("CC1CCCCN1CCCOC(=O)c1ccc(OC2CCCCC2)cc1 (stereo not drawn)")
"inactive"
>>> obs_value("CCCCCCOc1ccc(O)cc1")
"inactive"
>>> obs_value("Oc1ccc(-c2ccccc2)c(Cl)c1")
"inactive"
>>> obs_value("CCCCCCCCCCCCCCNCCO")
"inactive"
>>> obs_value("CC(=O)Oc1ccc(C2(c3ccc(OC(C)=O)cc3)C(=O)Nc3ccccc32)cc1")
"inactive"
>>> obs_value("Cc1cc2c(C(C)C)c(O)c(O)c(C=O)c2c(O)c1-c1c(C)cc2c(C(C)C)c(O)c(O)c(C=O)c2c1O")
"18.8 µM (active)"

====

Test: Caspase-3/7 induction in CHO-K1 cells by small molecules, qHTS cell viability counter screen (AID 1346979); note: % is set by controls: 0 for no effect and ±100 for the full control effect; nearly all actives have a fitted effect of over 35% in size
Conditions: CellTiter-Fluor fluorescence, 17 h; series mostly up to 92.4 µM
Text: National Center for Advancing Translational Sciences [NCATS] NIH Chemical Genomics Center [NCGC] U.S. Environmental Protection Agency [EPA] National Institutes of Environmental Health Sciences [NIEHS] National Toxicology Program [NTP] U.S. Food and Drug Administration [FDA] Apoptosis is a process of programmed cell death and plays a central role in the development of multicellular organisms. […]
Inconclusive results are not listed. Active and inactive are the calls of the source. Calls come from the whole dose curve; as a rule, active = well fitted cell-killing curve with a large enough effect in the repeat runs; inconclusive = weak or mixed curves, or effect the other way; inactive = no such curve, though single readings can be large or run the other way.
metric: activity change, negative = cytotoxicity

>>> obs_value("C=CC(=C)CC/C=C(\\C)CCC=C(C)C")
"-0.798% [at 19 µM] (inactive)"
>>> obs_value("CCN1CCN(c2cc(-c3ccc(F)cc3)c3c(n2)CCCCCC3)CC1")
"0.368% [at 19 µM] (inactive)"
>>> obs_value("N[C@@H](CSSC[C@H](N)C(=O)O)C(=O)O")
"-1.36% [at 0.349 µM] (inactive)"
>>> obs_value("CCCCCCCCCCCCCCCCCO")
"11.2% [at 19 µM] (inactive)"
>>> obs_value("O=S(=O)(O)c1cc(S(=O)(=O)O)c2ccc3c(S(=O)(=O)O)cc(S(=O)(=O)O)c4ccc1c2c43")
"5.57% [at 19 µM] (inactive)"

====

test: qHTS assay to identify small molecule agonists of H2AX - cell viability counter screen (AID 1224847); conditions: CHO-K1 viability, CellTiter-Glo luminescence, 3 h; series mostly up to 154 µM; note: nearly all actives have a fitted effect of over 30% in size
Results filed as inconclusive are left out. Active and inactive are the calls of the source. Calls follow the shape of the full dose curve.
Outcome codes: active, inactive

>>> class("OCCN1CN(CCO)CN(CCO)C1")
"inactive"
>>> class("CCCCCCCCC(C)=O")
"inactive"
>>> class("COc1ccccc1C=O")
"inactive"
>>> class("C=CC(C)(CCC=C(C)C)OC(=O)/C=C/c1ccccc1 (stereo not drawn)")
"inactive"
>>> class("CCCCCCCCCCCCCC[n+]1ccccc1")
"active"
>>> class("c1ccc2c(c1)CCC2")
"inactive"
>>> class("COc1nccnc1CC(C)C")
"inactive"
>>> class("CC1=C(/C=C/C(C)=C/C=C/C(C)=C\\C=O)C(C)(C)CCC1")
"active"

Numbers sourced from PubChem BioAssay (Tox21).
